# assay comment: Quantitative High-Throughput drug screen in 47 multiple myeloma cell lines against the NCATS MIPE library collection: OPM2_DSMZ cell viability assay (AID 1919872); also: nearly all actives have a fitted effect of over 30% in size
# protocol conditions: OPM2 myeloma viability, CellTiter-Glo ATP luminescence, 48 h; series mostly up to 45.8 µM
# From the text: PI: Beverly A. Mock Ph.D. Laboratory of Cancer Biology and Genetics, Center for Cancer Research, National Cancer Institute, National Institute of Health, Bethesda, Maryland […] 5; Detector; 425V; Luminescence; Viewlux PerkinElmer. […] 1. […] Briefly, the corresponding myeloma cell lines were screened in 1,536-well plates with 500 cells, 5-uL per well for inhibition of cell viability (assessed by measuring ATP levels with CellTiterGlo). […]
Inconclusive results are not listed. The source made the active and inactive calls. Calls follow the shape of the dose curve; as a rule, active = well fitted cell-killing curve with a large enough effect; inconclusive = small, poorly fitted or top-dose-only effect, or effect the other way; inactive = no such curve, though single readings can be large or run the other way. Residues, ends and D or L forms follow the SMILES beside them. *: point of attachment. Cbz = O=C(OCc1ccccc1)*
Outcomes you can answer with include only these: yes (1) = active, no (0) = inactive

| molecule | group label |
| --- | --- |
| Oc1ccc(-c2ccc(-c3cc(Nc4cccc(CNC5CC5)c4)n[nH]3)cc2)c(O)c1 | yes (1) |
| COc1cc([C@@H]2c3cc4c(cc3[C@@H](O[C@@H]3O[C@@H]5CO[C@@H](c6cccs6)O[C@@H]5[C@H](O)[C@@H]3O)[C@H]3COC(=O)[C@H]23)OCO4)cc(OC)c1O | yes (1) |

Ask: Which outcome was assigned to "COc1cc(OC)cc(-c2ccc3ncc4ccc(=O)n(-c5ccc(N6CCNCC6)c(C(F)(F)F)c5)c4c3c2)c1" in this test?
Reply: yes (1)

Ask: // repeat for "O=c1c(O)c(-c2ccc(O)c(O)c2)oc2cc(O)ccc12" and report
Reply: yes (1)

Ask: Also need "CCc1cnn2c(NCc3ccc[n+]([O-])c3)cc(N3CCCC[C@@H]3CCO)nc12" , thanks.
Reply: yes (1)

Ask: Here is the next molecule: "COc1ccc(S(=O)(=O)Nc2cccnc2Nc2ccc(O)cc2)cc1"
Reply: yes (1)

Ask: Check "COc1ccc2cc([S+]([O-])Cc3ncc(C)c(OC)c3C)nc2c1" too.
Reply: no (0)

Ask: What about this molecule? "CNC(=O)c1cccc(-c2ccc3c(N4CCOC[C@H]4C)nc(N4CCOC[C@H]4C)nc3n2)c1"
Reply: yes (1)

Ask: What do we get for "COc1cc2c(Nc3ccc(Cl)c(Cl)c3F)ncnc2cc1OCC1C[C@@H]2CN(C)C[C@H]2C1" ?
Reply: yes (1)

Ask: Ok, now "CCS(=O)(=O)Nc1ccc2[nH]c(O)c(C(=Nc3ccc(CN4CCCCC4)cc3)c3ccccc3)c2c1"
Reply: yes (1)

Ask: And "CC(C)(C)c1nc2c3cc[nH]c(=O)c3c3cc(F)ccc3c2[nH]1" ?
Reply: yes (1)

Ask: Note, next up: "COc1ccc(Nc2cc(-c3cnc(N)nc3)nc(N3CCOCC3)n2)cn1"
Reply: yes (1)

Ask: Subsequent entry: "N=c1ccn2c(n1)O[C@H]1[C@@H](O)[C@@H](CO)O[C@H]12"
Reply: no (0)

Ask: Check "CC[C@@]1([C@@H]2O[C@@H]([C@H]3O[C@@](O)(CO)[C@H](C)C[C@H]3C)C[C@H]2C)CC[C@H]([C@]2(C)CC[C@]3(C[C@H](O)[C@@H](C)[C@@H]([C@@H](C)[C@@H](OC)[C@H](C)C(=O)O)O3)O2)O1" too.
Reply: yes (1)

Ask: Record: "CC[C@H]1OC(=O)[C@H](C)[C@@H](O[C@H]2C[C@@](C)(OC)[C@@H](O)[C@H](C)O2)[C@H](C)[C@@H](O[C@@H]2O[C@@H](C)C[C@H](N(C)C)[C@@H]2O)[C@](C)(O)C[C@@H](C)C(=O)[C@H](C)[C@@H](O)[C@]1(C)O"
Reply: no (0)

Ask: Thanks! And CC(C)C[C@@H](C=O)NC(=O)[C@H](CC(C)C)NC(=O)[C@H](CC(C)C)NC(=O)OCc1ccccc1 (Cbz-Leu-Leu-Leu-aldehyde) ?
Reply: yes (1)

Ask: Likewise for "N#CC(=Cc1ccc(O)c(O)c1)C(=O)NCc1ccccc1" ?
Reply: no (0)

Ask: Please do the same for C[C@@H]1CC[C@@]2(OC1)OC1CC3C4CC=C5CC(O)CCC5(C)C4CCC3(C)C1[C@@H]2C (some centres not stated) as well.
Reply: no (0)

Ask: Then what about the molecule "CC(=O)[C@]1(O)Cc2c(O)c3c(c(O)c2[C@@H](O[C@H]2C[C@H](N)[C@@H](O)[C@H](C)O2)C1)C(=O)c1ccccc1C3=O" ?
Reply: yes (1)

Ask: Same read-out for "CC(=O)ON=C1C(c2c(O)[nH]c3cc(Br)ccc23)=Nc2ccccc21" ?
Reply: yes (1)

Reference source: PubChem BioAssay (NCATS)
